FYI, the data here is from patent US11351164B2.

- target desc: human IDO1 (Homo sapiens, UniProt P14902)
- Sequence (P14902 whole entry): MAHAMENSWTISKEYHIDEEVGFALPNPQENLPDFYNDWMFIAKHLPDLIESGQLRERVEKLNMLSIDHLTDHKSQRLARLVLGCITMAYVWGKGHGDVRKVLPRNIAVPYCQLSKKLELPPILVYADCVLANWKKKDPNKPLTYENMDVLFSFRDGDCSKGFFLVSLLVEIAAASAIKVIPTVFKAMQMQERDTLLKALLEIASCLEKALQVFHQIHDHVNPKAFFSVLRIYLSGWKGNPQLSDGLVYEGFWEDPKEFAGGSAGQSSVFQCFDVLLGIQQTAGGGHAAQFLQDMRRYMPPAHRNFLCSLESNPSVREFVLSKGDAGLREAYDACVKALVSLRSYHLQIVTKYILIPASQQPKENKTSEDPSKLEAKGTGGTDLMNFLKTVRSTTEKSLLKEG
- procedure text: IDO inhibition assay in HEK293 cells stably expressing human IDO1 (kynurenine, Ehrlich reagent, absorbance 490 nm)
- setup conditions: 20 hours incubation, read-out: IDO1 HEK Human IC50
IC50: recorded values
Lab book: enter the figure in nM, no units written.

Provide IC50, tested on human IDO1 (Homo sapiens, UniProt P14902), for C[C@@H](c1nnc(-c2ccc(C#N)cc2)s1)[C@H]1CC[C@@H](c2ccnc3ccc(F)cc32)CC1 .
37

Write down measured IC50 (human IDO1 (Homo sapiens, UniProt P14902)) for this compound. C[C@@H](Nc1nnc(-c2ccc(F)cc2)o1)[C@H]1CC[C@@H](c2ccnc3ccc(F)cc32)CC1
42.7

Look up and report IC50, with human IDO1 (Homo sapiens, UniProt P14902) as system, for C[C@@H](c1ncc(-c2ccc(Cl)cc2)o1)[C@H]1CC[C@@H](c2ccnc3ccc(F)cc32)CC1
288

Write down measured IC50 (human IDO1 (Homo sapiens, UniProt P14902)) for this compound. C[C@@H](c1nnc(-c2ccccc2)[nH]1)[C@H]1CC[C@@H](c2ccnc3ccc(F)cc32)CC1
48.2

Give IC50 for C[C@@H](Nc1nc(-c2ccc(Cl)cc2)cs1)[C@H]1CC[C@@H](c2ccnc3ccc(F)cc32)CC1 tested on human IDO1 (Homo sapiens, UniProt P14902).
858

Under human IDO1 (Homo sapiens, UniProt P14902): report IC50 of C[C@@H](c1nnc(-c2ccc(Cl)cc2)s1)[C@H]1CC[C@@H](c2ccnc3ccc(F)cc32)CC1 .
15.1

Fill in IC50 for Cc1ccc(-c2nnc([C@H](C)[C@H]3CC[C@@H](c4ccnc5ccc(F)cc54)CC3)[nH]2)cc1 tested with human IDO1 (Homo sapiens, UniProt P14902).
124

Answer with IC50 of C[C@@H](Nc1nnc(-c2ccc(-c3nccs3)cc2)o1)[C@H]1CC[C@@H](c2ccnc3ccc(F)cc32)CC1 measured for human IDO1 (Homo sapiens, UniProt P14902).
1000

Provide measured IC50 on human IDO1 (Homo sapiens, UniProt P14902) for COc1ccc(-c2nnc(N[C@H](C)[C@H]3CC[C@@H](c4ccnc5ccc(F)cc54)CC3)o2)cn1 please.
64.1

Enter measured IC50, system human IDO1 (Homo sapiens, UniProt P14902), for the compound shown: CC(C)Oc1ccc(-c2nnc([C@H](C)[C@H]3CC[C@@H](c4ccnc5ccc(F)cc54)CC3)o2)cc1
66.3

Write down measured IC50 (human IDO1 (Homo sapiens, UniProt P14902)) for this compound. C[C@@H](Nc1nnc(C2CC2)o1)[C@H]1CC[C@@H](c2ccnc3ccc(F)cc32)CC1
37.1

Print human IDO1 (Homo sapiens, UniProt P14902) IC50 for CCC(c1nnc(-c2ccc(OC(C)C)cc2)[nH]1)C1CCC(c2ccnc3ccc(F)cc23)CC1 (stereo not drawn) [Example 51] .
71.1

Quote human IDO1 (Homo sapiens, UniProt P14902) IC50 for entry CCC(Nc1nnc(-c2ccc(OC)cc2)o1)[C@H]1CC[C@@H](c2ccnc3ccc(F)cc32)CC1 (single isomer, unassigned) [Example 49-2] .
177

State IC50 (human IDO1 (Homo sapiens, UniProt P14902)) of C[C@@H](c1nnc(-c2ccc(F)c(Cl)c2)[nH]1)[C@H]1CC[C@@H](c2ccnc3ccc(F)cc32)CC1 .
86

Provide human IDO1 (Homo sapiens, UniProt P14902) IC50 reading for Cc1csc(-c2nnc(N[C@H](C)[C@H]3CC[C@@H](c4ccnc5ccc(F)cc54)CC3)o2)n1 .
3.5

Report value only: IC50, human IDO1 (Homo sapiens, UniProt P14902), CCC(Nc1nnc(-c2ccc(F)cc2)o1)C1CCC(c2ccnc3ccc(C(F)(F)F)cc23)CC1 (single isomer, unassigned) [Example 61]
811

Recall the reported IC50 of CCC(c1nnc(Nc2ccc(OC)cc2)[nH]1)C1CCC(c2ccnc3ccc(F)cc23)CC1 (single isomer, unassigned) [Example 56] on human IDO1 (Homo sapiens, UniProt P14902) and write it down.
18.4

Provide the reported IC50 (system: human IDO1 (Homo sapiens, UniProt P14902)) for C[C@@H](Nc1nnc(-c2ccc(Cl)cc2)[nH]1)[C@H]1CC[C@@H](c2ccnc3ccc(F)cc32)CC1
126
